Measured log10 GI50 values are reported for all entries that follow.
Target: Ba/F3-FL-EGFR-L858R-T790M-C797S (Homo sapiens, UniProt P00533, T790M/C797S/L858R, cells depend on it)
Sequence (P00533 whole entry T790M/C797S/L858R): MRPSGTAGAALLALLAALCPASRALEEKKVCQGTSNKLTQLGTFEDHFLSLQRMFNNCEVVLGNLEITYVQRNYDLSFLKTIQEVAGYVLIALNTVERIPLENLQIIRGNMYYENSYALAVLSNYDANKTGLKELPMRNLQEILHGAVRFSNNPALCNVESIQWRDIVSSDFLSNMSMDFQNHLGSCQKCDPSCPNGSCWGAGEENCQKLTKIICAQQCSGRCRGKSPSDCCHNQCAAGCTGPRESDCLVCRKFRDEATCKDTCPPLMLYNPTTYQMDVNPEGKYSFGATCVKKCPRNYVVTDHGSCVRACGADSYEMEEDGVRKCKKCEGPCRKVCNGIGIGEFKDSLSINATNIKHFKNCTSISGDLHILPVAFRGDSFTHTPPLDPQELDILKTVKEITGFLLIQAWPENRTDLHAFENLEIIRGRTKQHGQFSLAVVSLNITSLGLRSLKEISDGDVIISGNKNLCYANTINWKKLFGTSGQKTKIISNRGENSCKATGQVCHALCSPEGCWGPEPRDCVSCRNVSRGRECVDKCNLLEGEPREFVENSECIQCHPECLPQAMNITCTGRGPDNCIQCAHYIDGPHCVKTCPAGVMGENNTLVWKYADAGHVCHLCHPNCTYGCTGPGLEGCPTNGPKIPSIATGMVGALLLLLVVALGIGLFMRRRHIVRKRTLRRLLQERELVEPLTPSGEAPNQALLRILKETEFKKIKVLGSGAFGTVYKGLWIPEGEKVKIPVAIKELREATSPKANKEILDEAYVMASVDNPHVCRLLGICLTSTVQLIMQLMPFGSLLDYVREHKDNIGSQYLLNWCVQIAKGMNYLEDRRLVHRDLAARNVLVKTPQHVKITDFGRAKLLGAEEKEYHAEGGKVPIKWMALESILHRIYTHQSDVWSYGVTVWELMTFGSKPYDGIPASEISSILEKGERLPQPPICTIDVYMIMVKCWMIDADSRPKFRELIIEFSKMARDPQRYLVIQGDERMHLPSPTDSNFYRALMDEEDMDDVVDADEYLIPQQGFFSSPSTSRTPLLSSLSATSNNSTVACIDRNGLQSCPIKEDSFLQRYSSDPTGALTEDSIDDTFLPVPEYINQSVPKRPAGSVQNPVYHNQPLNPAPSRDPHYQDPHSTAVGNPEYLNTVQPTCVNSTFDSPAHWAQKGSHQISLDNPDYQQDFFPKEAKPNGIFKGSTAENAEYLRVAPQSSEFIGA
Assay: CellTiter-Glo proliferation, Ba/F3-FL-EGFR-L858R-T790M-C797S
Assay type: cell-based
Conditions: 72 hours, read-out: Ba/F3-FL-EGFR-L858R-T790M-C797S IC50/nM
assayReadout: log10 GI50 (log10 of the value in nM)

molecule	assayReadout	assayResult
CC(C)c1ccc(N2CC(NS(=O)(=O)N(C)C)C2)c2cnc(Nc3ccnc(N4CCC(O)C(F)C4)n3)cc12 (centres unmarked) [Compound P27]	log10 GI50	1.81
CC(C)c1ccc(N2CC(N(C)S(C)(=O)=O)C2)c2cnc(Nc3ccnc(N4CC[C@H](O)[C@H](F)C4)n3)cc12 [Compound P39b]	log10 GI50	1.15
COC1CCN(c2nccc(Nc3cc4c(C(C)C)ccc(N5CC(N(C)S(=O)(=O)C(F)(F)F)C5)c4cn3)n2)CC1F (centres unmarked) [Compound P50]	log10 GI50	2.86
CCCS(=O)(=O)C[C@H]1CN(c2ccc(C(C)C)c3cc(Nc4ccnc(-c5cnn(S(=O)(=O)C6CC6)c5)n4)ncc23)[C@@H]1C [Compound H34]	log10 GI50	1.86
CCOCCS(=O)(=O)n1cc(-c2nccc(Nc3cc4c(C(C)C)ccc(N5C[C@H](CS(C)(=O)=O)[C@H]5C)c4cn3)n2)cn1 [Compound H22]	log10 GI50	1.15
CCn1cc(-c2nccc(Nc3cc4c(C(C)C)ccc(N5CC(CS(C)(=O)=O)C5)c4cn3)n2)cn1 [Compound H27]	log10 GI50	2.51
CO[C@H]1CCN(c2nccc(Nc3cc4c(C(C)C)ccc(N5C[C@H](N(C)S(C)(=O)=O)[C@H]5C)c4cn3)n2)C[C@H]1F [Compound P40b]	log10 GI50	0.68
CC(C)c1ccc(N2CC(CS(C)(=O)=O)C2)c2cnc(Nc3ccnc(-c4cnn(S(=O)(=O)C5CCOC5)c4)n3)cc12 (centres unmarked) [Compound H24]	log10 GI50	1.97
CCCS(=O)(=O)N(C)[C@H]1CN(c2ccc(C(C)C)c3cc(Nc4ccnc(-c5cnn(S(=O)(=O)C6CC6)c5)n4)ncc23)[C@@H]1C [Compound H33]	log10 GI50	1.11
COC1CCN(c2nccc(Nc3cc4c(C(C)C)ccc(N5CC(NS(C)(=O)=O)C5)c4cn3)n2)CC1F (centres unmarked) [Compound P29]	log10 GI50	1.11
COCCS(=O)(=O)n1cc(-c2nccc(Nc3cc4c(C(C)C)ccc(N5C[C@H](CS(C)(=O)=O)[C@H]5C)c4cn3)n2)cn1 [Compound H21]	log10 GI50	0.64
CC(C)c1ccc(N2CC(CC(N)=O)C2)c2cnc(Nc3ccnc(-c4cnn(S(=O)(=O)C5CC5)c4)n3)cc12 [Compound H4]	log10 GI50	2.16
CC(C)c1ccc(N2CC(CS(C)(=O)=O)C2)c2cnc(Nc3ccnc(-c4cnn(S(=O)(=O)C5CC5)c4)n3)cc12 [Compound H1]	log10 GI50	1.20
CC(C)c1ccc(N2CC(N(C)S(C)(=O)=O)C2)c2cnc(Nc3ccnc(N4CC[C@@H](O)[C@@H](F)C4)n3)cc12 [Compound P39a]	log10 GI50	0.94
CC(C)c1ccc(N2C[C@H](N(C)S(C)(=O)=O)[C@H]2C)c2cnc(Nc3ccnc(-c4cnn(S(=O)(=O)C5CC5)c4)n3)cc12 [Compound H23]	log10 GI50	1.00
COC1CCN(c2nccc(Nc3cc4c(C(C)C)ccc(N5CC(NS(=O)(=O)C6COC6)C5)c4cn3)n2)CC1F (centres unmarked) [Compound P37]	log10 GI50	1.53
CC(C)c1ccc(N2CC(CS(C)(=O)=O)C2)c2cnc(Nc3ccnc(-c4cnn(S(C)(=O)=O)c4)n3)cc12 [Compound H7]	log10 GI50	1.40
CC(C)c1ccc(N2C[C@H](CS(C)(=O)=O)[C@H]2C)c2cnc(Nc3ccnc(-c4cnn(S(C)(=O)=O)c4)n3)cc12 [Compound H30]	log10 GI50	1.32
CC(C)c1ccc(N2CC(N(C)S(C)(=O)=O)C2)c2cnc(Nc3ccnc(-c4cnn(S(=O)(=O)C5CC5)c4)n3)cc12 [Compound H25]	log10 GI50	1.41
CCCS(=O)(=O)NC1CN(c2ccc(C(C)C)c3cc(Nc4ccnc(N5CCC(O)C(F)C5)n4)ncc23)C1 (centres unmarked) [Compound P48]	log10 GI50	1.49
CCS(=O)(=O)N[C@H]1CN(c2ccc(C(C)C)c3cc(Nc4ccnc(N5CCC(OC)C(F)C5)n4)ncc23)[C@@H]1C (some centres unmarked) [Compound P44]	log10 GI50	0.83
CC(C)c1ccc(N2CC(CS(C)(=O)=O)C2)c2cnc(Nc3ccnc(N4CCC(O)C(F)C4)n3)cc12 (centres unmarked) [Control A, reference compound]	log10 GI50	1.58
CC(C)c1ccc(N2CC3(CC(S(C)(=O)=O)C3)C2)c2cnc(Nc3ccnc(-c4cnn(S(=O)(=O)C5CC5)c4)n3)cc12 [Compound P3]	log10 GI50	2.39
CC(C)c1ccc(N2C[C@H](CS(C)(=O)=O)[C@H]2C)c2cnc(Nc3ccnc(-c4cnn(S(=O)(=O)C5CC5)c4)n3)cc12 [Compound H12]	log10 GI50	1.20
COC1CCN(c2nccc(Nc3cc4c(C(C)C)ccc(N5CC(N(C)S(C)(=O)=O)C5)c4cn3)n2)CC1F (centres unmarked) [Compound P36]	log10 GI50	1.15
CC(C)c1ccc(N2CC(CS(C)(=O)=O)C2)c2cnc(Nc3ccnc(-c4cnn(S(=O)(=O)N(C)C)c4)n3)cc12 [Compound H19]	log10 GI50	2.09

All values here come from patent US20250092017A1.
